B1: FAM9B (parent)
chain: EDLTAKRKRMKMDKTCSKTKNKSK

Variants of: B1
Assay: protein stability index of a GFP-peptide fusion (GPS, HEK-293T) (PSI 1-6); higher = more stable;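 also: lentivirally expressed fusions sorted by FACS into six bins by GFP to DsRed ratio, PSI derived from sequencing read proportions per bin multiplied by bin number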
Conditions: c terminus: a fixed tail appended
reported-property: protein stability index

>>> result("EDLTAMRKRMKMDKTCSKTKNKSK")
4.67
>>> result("EGLTAKRKRMKMDKTCSKTKNKSK")
5.21
>>> result("EDLTAKRKRMKMDKTCSKTKNKNK")
5.12
>>> result("EDLTAKRFRMKMDKTCSKTKNKSK")
4.58
>>> result("EDLTGKRKRMKMDKTCSKTKNKSK")
5.47

List protein stability index for every entry below, keeping the order given.
1. EDLTAKRKRMKMDKTCSKTKNASK
2. EWLTAKRKRMKMDKTCSKTKNKSK
3. EDLTWKRKRMKMDKTCSKTKNKSK
4. EDLTAKRKRMKMDCTCSKTKNKSK

Response given:
5.4
3.49
5.3
4.41

List protein stability index for every entry below, keeping the order given.
1. EDLWAKRKRMKMDKTCSKTKNKSK
2. EDLTSKRKRMKMDKTCSKTKNKSK
3. EDLTAKRKRMKMDKTSSKTKNKSK
4. EDLTAKRKRMKMDDTCSKTKNKSK

Response given:
1. 4.38
2. 5.5
3. 5.33
4. 5.14

List protein stability index for every entry below, keeping the order given.
1. EPLTAKRKRMKMDKTCSKTKNKSK
2. EDLTAKRKRMKMDKTMSKTKNKSK
3. EDLTAKRKRMKMDKTCSKTKNKSQ

Response given:
1. 5.51
2. 5.27
3. 4.59

List protein stability index for every entry below, keeping the order given.
1. EDLTAKRKRMKMDKLCSKTKNKSK
2. EDLTAKRKRMKMDKTCSKTKNKSD
3. EDLTAKRWRMKMDKTCSKTKNKSK
4. EDLTAKRKRMKMDKTCSKTKNKWK
5. EDLHAKRKRMKMDKTCSKTKNKSK

Response given:
1. 5.07
2. 4.97
3. 4.77
4. 4.47
5. 5.29

List protein stability index for every entry below, keeping the order given.
1. EDLTAKRKTMKMDKTCSKTKNKSK
2. EDLTAKRKRMKMDKTCSKTKNKSI
3. EDPTAKRKRMKMDKTCSKTKNKSK
4. EDLTAKRKRMKMDKTCSKTKNKCK

Response given:
1. 5.11
2. 4.68
3. 5.39
4. 5.32
